Ref: paper PMC7249156

measurementNotes: Stability test (hydrolysis) in human plasma (80%, 37 °C)
Assay type: in vitro ADME
measurementParameters: human plasma 80%
assayEndpoint: log10(t0.5) (log10 of the value in h)

- compound: "Nc1nc2c(ncn2COCCOC(=O)c2cccnc2)c(=O)[nH]1 [Nic-ACV]"
  assayEndpoint: "log10(t0.5)"
  measuredResult: -0.35
- compound: "CC(C)C(=O)OCCOCn1cnc2c(=O)[nH]c(N)nc21 [iBut-ACV]"
  assayEndpoint: "log10(t0.5)"
  measuredResult: -0.34
- compound: "CCOC(=O)OCCOCn1cnc2c(=O)[nH]c(N)nc21 [Etc-ACV]"
  assayEndpoint: "log10(t0.5)"
  measuredResult: 0.38
- compound: "CC(C)(C)C(=O)OCCOCn1cnc2c(=O)[nH]c(N)nc21 [Piv-ACV]"
  assayEndpoint: "log10(t0.5)"
  measuredResult: 0.91
- compound: "COc1ccc(-c2cn3c(=O)c4ncn(COCCO)c4nc3[nH]2)cc1 [6-(4-MeOPh)-TACV]"
  assayEndpoint: "log10(t0.5)"
  measuredResult: 1.84
- compound: "CC(=O)OCCOCn1cnc2c(=O)[nH]c(N)nc21 [Ac-ACV]"
  assayEndpoint: "log10(t0.5)"
  measuredResult: 0.47

---

Test system: esterase from porcine liver (PLE)
measurementNotes: Stability test in plasma (80%, 37 °C) with porcine liver esterase
Format: in vitro ADME
measurementParameters: cE 3.0 U, 1.65·10^−8 M, plasma 80%
Entries and their t0.5
assayEndpoint: t0.5 (min)

- smilesInput: "CCOC(=O)OCCOCn1cnc2c(=O)[nH]c(N)nc21"
  systemName: "esterase from porcine liver (PLE)"
  measuredResult: 13.4
- smilesInput: "CC(C)(C)C(=O)OCCOCn1cnc2c(=O)[nH]c(N)nc21"
  systemName: "esterase from porcine liver (PLE)"
  measuredResult: 14.3
- smilesInput: "Nc1nc2c(ncn2COCCOC(=O)c2cccnc2)c(=O)[nH]1"
  systemName: "esterase from porcine liver (PLE)"
  measuredResult: 21.6
- smilesInput: "CC(C)C(=O)OCCOCn1cnc2c(=O)[nH]c(N)nc21"
  systemName: "esterase from porcine liver (PLE)"
  measuredResult: 2.1
- smilesInput: "COc1ccc(-c2cn3c(=O)c4ncn(COCCO)c4nc3[nH]2)cc1"
  systemName: "esterase from porcine liver (PLE)"
  measuredResult: 1410

---

Entries and their t0.5
System: esterase from porcine liver (PLE)
measurementNotes: Stability test in plasma (80%, 37 °C) with porcine liver esterase
Type: in vitro ADME
measurementParameters: cE 4.0 U, 2.20·10^−8 M, plasma 80%

- molecule: "Nc1nc2c(ncn2COCCOC(=O)c2cccnc2)c(=O)[nH]1 [Nic-ACV]"
  systemName: "esterase from porcine liver (PLE)"
  t0.5 [min]: 20.7
- molecule: "COc1ccc(-c2cn3c(=O)c4ncn(COCCO)c4nc3[nH]2)cc1 [6-(4-MeOPh)-TACV]"
  systemName: "esterase from porcine liver (PLE)"
  t0.5 [min]: 1360
- molecule: "CC(=O)OCCOCn1cnc2c(=O)[nH]c(N)nc21 [Ac-ACV]"
  systemName: "esterase from porcine liver (PLE)"
  t0.5 [min]: 144
- molecule: "CCOC(=O)OCCOCn1cnc2c(=O)[nH]c(N)nc21 [Etc-ACV]"
  systemName: "esterase from porcine liver (PLE)"
  t0.5 [min]: 9.6
